System: Aβ40 peptides generated from SH-SY5Y cells expressing amyloid β protein (SP4CT cells)
ASSAY DETAILS: APP processing AlphaLisa assay, secreted Aβ40
Type: cell-based
RECORDED CONDITIONS: average of at least >4 replicates, read-out: AB40 IC50 AVG
The molecules listed here are annotated with their IC50.
Write the figure, then the unit, nothing else.

- MOLECULE: "CN(C1CC(c2cc(F)ccc2F)(S(=O)(=O)c2ccc(Cl)cc2)C1)S(=O)(=O)C(F)(F)F (stereo not shown) [Example 14]"
  IC50: "0.0899 µM"

Reported IC50 for `O=S(=O)([N-][C@H]1C[C@@](c2cc(F)ccc2F)(S(=O)(=O)c2ccc(Cl)cc2)C1)C(F)(F)F.[Na+]` was 0.0612 µM

Lookup result for `O=S(=O)([N-][C@H]1C[C@@](c2cc(F)ccc2F)(S(=O)(=O)c2ccc(Cl)cc2)C1)C(F)(F)F.[K+]` ; measured IC50: 0.0649 µM

Reported IC50 for CN(C1CC(c2cc(F)ccc2F)(S(=O)(=O)c2ccc(Cl)cc2)C1)S(=O)(=O)C(F)(F)F (stereo not shown) [Example 13] was 0.0184 µM

====

In this section we review reported PXR % Activation @ 10 uM values for a set of compounds.
TARGET OR SYSTEM: pregnane X receptor (PXR) (Homo sapiens, UniProt O75469)
Construct: expressed in transfected cells; host or cells: HEP G2
Sequence (O75469 whole entry): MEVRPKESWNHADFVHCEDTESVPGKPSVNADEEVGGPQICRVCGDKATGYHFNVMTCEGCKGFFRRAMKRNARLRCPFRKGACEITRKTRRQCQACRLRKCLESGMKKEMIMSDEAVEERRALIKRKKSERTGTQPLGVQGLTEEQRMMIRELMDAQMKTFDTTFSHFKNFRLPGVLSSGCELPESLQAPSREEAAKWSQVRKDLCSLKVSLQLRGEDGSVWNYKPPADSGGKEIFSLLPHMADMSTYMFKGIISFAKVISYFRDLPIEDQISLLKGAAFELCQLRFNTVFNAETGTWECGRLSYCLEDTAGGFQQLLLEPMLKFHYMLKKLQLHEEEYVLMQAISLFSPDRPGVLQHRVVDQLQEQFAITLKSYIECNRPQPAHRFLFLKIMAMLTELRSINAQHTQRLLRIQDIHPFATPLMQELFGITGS
Sequence (P19793 whole entry partner): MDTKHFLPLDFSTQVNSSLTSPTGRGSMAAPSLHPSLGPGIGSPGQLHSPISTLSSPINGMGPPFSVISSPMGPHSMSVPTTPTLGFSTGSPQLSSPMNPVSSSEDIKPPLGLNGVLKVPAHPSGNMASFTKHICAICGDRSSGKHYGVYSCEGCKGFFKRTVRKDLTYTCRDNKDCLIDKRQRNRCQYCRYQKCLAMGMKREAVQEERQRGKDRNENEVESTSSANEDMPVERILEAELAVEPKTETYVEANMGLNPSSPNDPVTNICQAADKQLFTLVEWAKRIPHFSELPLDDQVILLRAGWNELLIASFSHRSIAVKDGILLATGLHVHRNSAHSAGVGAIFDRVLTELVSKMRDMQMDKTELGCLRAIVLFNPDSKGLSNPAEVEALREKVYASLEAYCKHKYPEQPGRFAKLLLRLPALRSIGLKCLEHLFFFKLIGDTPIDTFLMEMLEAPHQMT
ASSAY DETAILS: PXR assay (CYP3A4-SEAP transactivation assay, PCSTA)
Type: cell-based
RECORDED CONDITIONS: 10 uM
Text: The CYP3A4-SEAP transactivation assay (PCSTA) effectively and rapidly evaluates compounds for their potential to induce cytochrome P450 CYP3A (human CYP3A4 or rat CYP3A1). The reporter construct contains regulatory regions from the CYP3A4 gene positioned just upstream of a secreted alkaline phosphatase (SEAP) gene. […] Read-out for the induction of CYP3A4 consists of a SEAP calorimetric assay with para-nitro-phenyl phosphate (pNPP) as the substrate. […]

Field: example entries. Status: answers known.
- COMPOUND: "N#Cc1ccc(F)cc1[C@]1(S(=O)(=O)c2ccc(Cl)cc2)C[C@@H](NS(=O)(=O)C(F)(F)F)C1"
  PXR % Activation @ 10 uM: "92.3%"
- COMPOUND: "O=S(=O)(N([C@H]1C[C@@](c2cc(F)ccc2F)(S(=O)(=O)c2ccc(Cl)cc2)C1)S(=O)(=O)C(F)(F)F)C(F)(F)F"
  PXR % Activation @ 10 uM: "89.1%"

Proceeding to the next compound to report its PXR % Activation @ 10 uM.
Note to self: PXR % Activation @ 10 uM of O=S(=O)(N(CCOC1CCCCO1)[C@H]1C[C@@](c2cc(F)ccc2F)(S(=O)(=O)c2ccc(Cl)cc2)C1)C(F)(F)F (stereo partly drawn) with pregnane X receptor (PXR) (Homo sapiens, UniProt O75469) was 86.5%
